Recorded TGI values for a group of compounds are listed next.
# Test system: COLO 205 colon
# method.description: NCI tumour cell line growth inhibition, 48 h

// solved cases for TGI follow
compound	TGI
CC(O)c1cc(C(=O)N[C@@H](C)Cn2ccc(-c3ccc(C#N)c(Cl)c3)n2)n[nH]1 (some centres not stated)	> 100 µM
NC(N)=NCCCC(NC(=O)OCCCCn1ccc(N)nc1=O)C(=O)O (configuration not stated)	> 100 µM
Cc1ccc(CCC(=O)C(=O)O)s1	> 100 µM
CCOC(=O)C(NC(=O)OC(C)(C)C)C(=O)OCC	> 100 µM
CC1=C(C)C(=O)C(C2=CC(=O)C=CC2=O)=C(C2=CC(=O)C=CC2=O)C1=O	> 100 µM

# input Give the reported value of TGI for this record: Cc1ccc(-n2cc([Si](C)(C)C)nn2)s1
# output > 100 µM

# input Give the reported value of TGI for this record: CCN(CC)CC(=N)N(CC)c1ccccc1
# output > 100 µM

# input Give the reported value of TGI for this record: CCN(CC)CCNC(=O)c1cccc2nc3ccccc3nc12
# output > 41.4 µM

# input Give the reported value of TGI for this record: CC(=O)OC1COC(Nc2nc(N)n(C)c(=O)c2N=O)C(OC(C)=O)C1OC(C)=O (configuration not stated)
# output > 10 µM

# input Give the reported value of TGI for this record: Cc1ccc(N=C2C(=Nc3ccc(C)cc3)N(c3ccc(C)cc3)C(=S)N2C(=O)c2ccccc2)cc1
# output > 100 µM

# input Give the reported value of TGI for this record: N#CC(C#N)=C1C(=O)NC(N)=C1C#N
# output > 100 µM

# input Give the reported value of TGI for this record: O=C(O)c1cc2ccccc2c2c1C(=O)c1ccccc1-2
# output > 100 µM

# input Give the reported value of TGI for this record: CN(C)CC/C(=N\Nc1ccc(Cl)cc1Cl)c1ccccc1
# output 29.2 µM

# input Give the reported value of TGI for this record: O=C1/C(=C/c2ccc(Br)cc2)CCC/C1=C\c1ccc(Br)cc1
# output 28.4 µM

# input Give the reported value of TGI for this record: CC(C)(C)c1ccc(NS(=O)(=O)c2ccc3nc(NC(=O)c4cnccn4)[nH]c3c2)cc1
# output 20.9 µM

# input Give the reported value of TGI for this record: C=CCn1c(-c2ccc([N+](=O)[O-])cc2)csc1=N
# output > 100 µM

# input Give the reported value of TGI for this record: COc1ccc(C[C@H](N)C(=O)N2C[C@@H](CO)C[C@@H](n3ccc(=O)[nH]c3=O)C2)cc1
# output > 100 µM

# input Give the reported value of TGI for this record: COc1ccc(-c2nn(-c3ccc(NC(=O)Nc4ccc(Cl)c(C(F)(F)F)c4)cc3)cc2-c2ccncc2)cc1Cl
# output 3.13 µM

----------
# Tested on: MDA-MB-435
# method.description: NCI tumour cell line growth inhibition, 48 h
Recorded TGI values for a group of molecules are listed next.

// solved cases for TGI follow
molecule	TGI
Cc1ccc(-c2cc(O)c(-c3ccc(C)cc3C)cc2O)c(C)c1	45.1 µM
CCOC(=O)c1c(-c2cccc3ccccc23)c(C#N)c(=S)n(C2OC(COC(C)=O)C(OC(C)=O)C(OC(C)=O)C2OC(C)=O)c1C (stereo unspecified)	> 100 µM
CN(C)CCCn1c(-c2nonc2N)nc2cnccc21	> 25 µM
CC(=C/c1ccccc1)/C=C1/NC(=S)N(/C=C2\C(=O)Oc3ccccc3C2=O)C1=O	> 100 µM
Oc1ccc(Cc2cc(Cl)cc(Cl)c2O)cc1Cl	27.1 µM
C/C=C(/C)C(=O)O[C@H]1[C@H](O)CC(c2ccc3c(c2O)C(O)=C2C(=O)C4(OC)C(O)=C(C(N)=O)C(=O)[C@H](CC(=O)c5ccccc5O)C4CC2[C@@]3(C)OC)O[C@@H]1C (stereo partly specified)	1.64 µM

# input Give the reported value of TGI for this record: S=c1[nH]c2ccc(I)cc2c(=S)n1Cc1ccccc1
# output > 100 µM

# input Give the reported value of TGI for this record: C=C(C)CNC(=S)N(N)c1ccc2ccccc2c1
# output > 100 µM
